- Tested Target: T1, B-cat-Halo (beta-catenin HaloTag fusion expressed in HEK293 cells) (Homo sapiens (Human), UniProt P35222 1-781)
- T1 sequence: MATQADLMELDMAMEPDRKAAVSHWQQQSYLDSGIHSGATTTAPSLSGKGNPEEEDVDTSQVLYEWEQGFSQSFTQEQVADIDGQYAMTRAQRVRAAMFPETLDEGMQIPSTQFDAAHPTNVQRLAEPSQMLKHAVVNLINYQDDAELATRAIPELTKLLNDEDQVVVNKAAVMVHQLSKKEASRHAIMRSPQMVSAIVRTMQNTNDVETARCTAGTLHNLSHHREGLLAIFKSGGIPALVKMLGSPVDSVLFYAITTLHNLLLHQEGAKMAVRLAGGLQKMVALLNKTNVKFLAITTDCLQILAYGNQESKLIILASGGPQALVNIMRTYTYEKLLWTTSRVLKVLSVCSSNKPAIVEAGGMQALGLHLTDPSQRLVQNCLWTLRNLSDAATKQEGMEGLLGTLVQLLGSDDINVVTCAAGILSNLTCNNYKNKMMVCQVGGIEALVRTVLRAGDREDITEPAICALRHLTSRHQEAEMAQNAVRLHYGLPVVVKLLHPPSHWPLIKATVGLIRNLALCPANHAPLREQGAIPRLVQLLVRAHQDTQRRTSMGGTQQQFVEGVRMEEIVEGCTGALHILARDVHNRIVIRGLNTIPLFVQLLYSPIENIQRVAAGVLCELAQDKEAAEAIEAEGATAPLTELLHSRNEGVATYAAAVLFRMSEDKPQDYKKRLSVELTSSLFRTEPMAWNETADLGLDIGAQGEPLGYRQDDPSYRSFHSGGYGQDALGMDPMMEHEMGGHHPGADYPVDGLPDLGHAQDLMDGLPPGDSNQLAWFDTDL
- Method Notes: cell-based or functional assay
Starred links: 1 amine or outer side, 2 acyl side, 3 side chain; linkers in the order of their positions; H or OH if unused. Positions of bridges follow the written chain, without caps; N, C: chain ends. Non-standard residues stand in square brackets, D forms with d. Primed or numbered codes have the meaning given here. PyrS2″ = (S)-3-amino-1-((pent-4-en-1-yloxy)carbonyl)pyrrolidine-3-carboxylic acid (stapling residue), C=CCCCOC(=O)N1CC[C@@](N[*:1])(C(=O)[*:2])C1; B5(4) = 2,2-bis(4-pentenyl)glycine = 2-amino-2-(pent-4-en-1-yl)hept-6-enoic acid (stitching residue), C=CCCCC(CCCC=C)(N[*:1])C(=O)[*:2]; B5(5) = 2,2-bis(4-pentenyl)glycine, 2-amino-2-(pent-4-en-1-yl)hept-6-enoic acid (stitching residue), C=CCCCC(CCCC=C)(N[*:1])C(=O)[*:2]; Phe(3-COOH) = N[C@@H](Cc1cccc(C(=O)O)c1)C(=O)O; Phe(2-CF3) = N[C@@H](Cc1ccccc1C(F)(F)F)C(=O)O; 2Nal = N[C@@H](Cc1ccc2ccccc2c1)C(=O)O; Bta = N[C@@H](Cc1csc2ccccc12)C(=O)O; Lys(iPr) = CC(C)NCCCC[C@H](N)C(=O)O; αAllylPro = C=CC[C@@]1(C(=O)O)CCCN1; tBuAla = CC(C)(C)C[C@H](N)C(=O)O; 3Thi = N[C@@H](Cc1ccsc1)C(=O)O; Cha = N[C@@H](CC1CCCCC1)C(=O)O
Label condition met when NanoBRET Abs IC50 >= 20 µM; otherwise condition not met.

>>> group("Ac-[αAllylPro]N[Cha][B5(4)]DT[Lys(iPr)]AFL[PyrS2″]F[Bta]K-NH2 (staple 1-4, 4-11) [I-2450]")
"condition met"
>>> group("Ac-[αAllylPro]N[Cha][B5(4)]DT[Lys(iPr)]AFL[PyrS2″]F[Bta]Q-NH2 (staple 1-4, 4-11) [I-2448]")
"condition met"
>>> group("Ac-[αAllylPro]N[Cha][B5(5)]DQ[Lys(iPr)]AFL[PyrS2″][3Thi][Bta]Q-NH2 (staple 1-4, 4-11; not fully specified; printed as Ac-PL3-Asn-Cha-B5-Asp-Gln-iPrLys-Ala-Phe-Leu-PyrS2-3Thi-BztA-Gln-NH2) [I-2446]")
"condition met"
>>> group("Ac-[αAllylPro]D[tBuAla][B5(4)]D[Phe(3-COOH)]QAFL[PyrS2″][Phe(2-CF3)][RbMeBztA]A-NH2 (staple 1-4, 4-11) [I-2459]")
"condition not met"
>>> group("Ac-[αAllylPro]D[tBuAla][B5(4)]D[Phe(3-COOH)]QAFL[PyrS2″][Phe(2-CF3)][SbMeBztA]A-NH2 (staple 1-4, 4-11) [I-2457]")
"condition met"
>>> group("Ac-[αAllylPro]D[tBuAla][B5(4)]D[Phe(3-COOH)]AAFL[PyrS2″][Phe(2-CF3)][2Nal]Q-NH2 (staple 1-4, 4-11) [I-2460]")
"condition not met"
>>> group("Ac-[αAllylPro]D[tBuAla][B5(4)]D[Phe(3-COOH)]AAFL[PyrS2″][Phe(2-CF3)][SbMeBztA]Q-NH2 (staple 1-4, 4-11) [I-2456]")
"condition not met"
>>> group("Ac-[αAllylPro]D[tBuAla][B5(4)]D[Phe(3-COOH)]QAFL[PyrS2″][Phe(2-CF3)][2Nal]A-NH2 (staple 1-4, 4-11) [I-2461]")
"condition met"

Reference source: patent US20240116985A1
